In this section, each of the compounds is paired with its reported IC50.
# EXPERIMENTAL TARGET: yeast glyoxalase I (Saccharomyces cerevisiae, UniProt P50107)
# Construct: purchased Sigma G-4252
# Sequence (P50107 1-326): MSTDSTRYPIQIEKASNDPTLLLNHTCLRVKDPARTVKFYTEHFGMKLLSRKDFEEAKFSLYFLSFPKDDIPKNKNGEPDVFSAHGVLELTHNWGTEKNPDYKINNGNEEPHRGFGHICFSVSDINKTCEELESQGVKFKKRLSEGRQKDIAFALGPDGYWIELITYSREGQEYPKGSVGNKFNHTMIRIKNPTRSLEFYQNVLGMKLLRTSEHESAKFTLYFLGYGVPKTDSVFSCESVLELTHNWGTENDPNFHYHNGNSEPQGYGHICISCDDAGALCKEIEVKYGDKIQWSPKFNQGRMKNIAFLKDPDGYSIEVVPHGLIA
# ASSAY REMARKS: Enzymatic activity of yeast glyoxalase I
# Format: biochemical
Provide the reading as a plain figure in mM.

1. CCCCOC(=O)C(C)=O [Butyl pyruvate]	7.5
2. CCOC(=O)C(C)=O [Ethyl pyruvate]	10
3. CCOC(=O)C(=O)CC [Ethyl 2-oxobutyrate]	1.8

Switching to the query record.
Reported IC50, compound COC(=O)C(C)=O [Methyl pyruvate] : ____
15

The reported numbers originate from patent US20080300303A1.
